# Assayed System: human NaV 1.8 (Homo sapiens, UniProt Q9Y5Y9)
# Sequence (Q9Y5Y9 126-399 limits assumed): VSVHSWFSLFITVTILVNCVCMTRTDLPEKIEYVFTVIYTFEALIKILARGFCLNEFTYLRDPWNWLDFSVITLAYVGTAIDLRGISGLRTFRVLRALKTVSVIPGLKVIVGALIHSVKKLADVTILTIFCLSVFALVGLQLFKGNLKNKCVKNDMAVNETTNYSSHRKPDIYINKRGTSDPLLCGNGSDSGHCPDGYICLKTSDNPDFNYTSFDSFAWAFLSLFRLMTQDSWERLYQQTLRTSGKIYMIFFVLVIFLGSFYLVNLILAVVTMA
# Sequence (Q9Y5Y9 660-890 limits assumed): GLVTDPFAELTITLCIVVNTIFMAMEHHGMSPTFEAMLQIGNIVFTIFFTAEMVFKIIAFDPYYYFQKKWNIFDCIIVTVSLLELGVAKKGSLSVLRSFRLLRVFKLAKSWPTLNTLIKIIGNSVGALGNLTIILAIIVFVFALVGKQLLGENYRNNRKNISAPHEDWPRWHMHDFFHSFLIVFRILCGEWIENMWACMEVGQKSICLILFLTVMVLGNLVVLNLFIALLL
# Sequence (Q9Y5Y9 1148-1722 limits assumed): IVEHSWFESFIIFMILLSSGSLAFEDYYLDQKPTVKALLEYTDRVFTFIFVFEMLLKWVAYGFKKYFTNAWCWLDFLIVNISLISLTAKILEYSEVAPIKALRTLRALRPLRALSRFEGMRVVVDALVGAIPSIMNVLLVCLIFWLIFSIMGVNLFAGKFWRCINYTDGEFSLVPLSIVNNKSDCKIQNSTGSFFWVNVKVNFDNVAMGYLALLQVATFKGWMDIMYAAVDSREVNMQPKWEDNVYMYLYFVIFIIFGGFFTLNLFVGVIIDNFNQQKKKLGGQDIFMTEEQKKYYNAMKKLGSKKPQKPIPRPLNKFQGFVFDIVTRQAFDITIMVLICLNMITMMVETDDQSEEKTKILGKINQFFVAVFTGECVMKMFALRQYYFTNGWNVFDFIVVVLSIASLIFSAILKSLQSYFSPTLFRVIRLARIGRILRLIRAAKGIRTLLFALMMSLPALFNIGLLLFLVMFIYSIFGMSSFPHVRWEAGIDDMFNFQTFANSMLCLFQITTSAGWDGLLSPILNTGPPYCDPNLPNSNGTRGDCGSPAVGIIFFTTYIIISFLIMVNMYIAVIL
# Assay Overview: E-VIPR assay detecting and measuring NaV inhibition properties
# Format: cell-based
# Measurement Context: HEK cells expressing truncated human NaV 1.8; no human serum; read-out: IC50 in the E-VIPR Assay
pIC50: −log10 of the molar value.
Measured Attribute: pIC50

The following compounds have reported results that may help.
{"columns": ["Compound", "pIC50"],
 "data": [
  ["C[C@H]1[C@@H](c2ccc(F)c(F)c2OC(F)F)[C@H](C(=O)Nc2ccnc(CO)c2)O[C@@]1(C)C(F)(F)F (single isomer, unassigned)", "> 8.00"],
  ["C[C@H]1[C@@H](c2ccc(F)c(F)c2OC2CC(O)C2)[C@H](C(=O)Nc2cccnc2)O[C@@]1(C)C(F)(F)F (stereo partly drawn)", "> 8.00"],
  ["COc1c(C2C(C(=O)Nc3ccnc(C(C)(C)O)c3)OC(C)(C(F)(F)F)C2C)ccc(F)c1F (single isomer, unassigned) [Compound 47]", "≤ 6.00"],
  ["COc1c([C@H]2[C@H](C(=O)Nc3cnc4nncn4c3)O[C@@](C)(C(F)(F)F)[C@H]2C)ccc(F)c1F", "7.00 to 8.00"],
  ["CNC1CC(=O)N(c2cc(NC(=O)[C@@H]3O[C@@](C)(C(F)(F)F)[C@@H](C)[C@H]3c3ccc(F)c(F)c3OC)ccn2)C1 (single isomer, unassigned)", "7.00 to 8.00"]
]}

Request: Please provide the recorded pIC50 for COc1c([C@H]2[C@H](C(=O)Nc3ccc(C(N)=O)[n+]([O-])c3)O[C@@](C)(C(F)(F)F)[C@H]2C)ccc(F)c1F , tested on human NaV 1.8 (Homo sapiens, UniProt Q9Y5Y9).
Result: 7.00 to 8.00

Request: Now consider C[C@H]1[C@@H](c2ccc(F)c(F)c2O)[C@H](C(=O)Nc2ccc(C(N)=O)nc2)O[C@@]1(C)C(F)(F)F .
Result: 6.00 to 7.00

Request: Now consider C[C@H]1[C@@H](c2ccc(F)c(F)c2OCCO)[C@H](C(=O)Nc2cnnn2C)O[C@@]1(C)C(F)(F)F .
Result: 6.00 to 7.00

Request: Now consider COc1c([C@H]2[C@H](C(=O)Nc3ccnc(N4C(=O)[C@@H]5C[C@H]4CN5)c3)O[C@@](C)(C(F)(F)F)[C@H]2C)ccc(F)c1F .
Result: 7.00 to 8.00

Request: Now consider CNS(=O)(=O)c1ccc(NC(=O)[C@@H]2O[C@@](C)(C(F)(F)F)[C@@H](C)[C@H]2c2ccc(F)c(F)c2OC)cn1 .
Result: 7.00 to 8.00

Request: Now consider CNC1(c2cc(NC(=O)[C@@H]3O[C@@](C)(C(F)(F)F)[C@@H](C)[C@H]3c3ccc(F)c(F)c3OC)ccn2)COC1 .
Result: > 8.00

Request: Now consider COc1cc(NC(=O)[C@@H]2O[C@@](C)(C(F)(F)F)[C@@H](C)[C@H]2c2ccc(F)c(F)c2OCCO)ccn1 .
Result: 7.00 to 8.00

----------
# Assayed System: human NaV 1.8 (Homo sapiens)
# Assay Overview: E-VIPR assay detecting and measuring NaV inhibition properties
# Type: cell-based
# Measurement Context: HEK cells expressing truncated human NaV 1.8; in the presence of human serum (compound numbers followed by *); read-out: IC50 in the E-VIPR Assay, performed in the presence of human serum
# Excerpt: Sodium ion channels are voltage-dependent proteins that can be activated by inducing membrane voltage changes by applying electric fields. The electrical stimulation instrument and methods of use, referred to as E-VIPR, are described in International Publication No. WO 2002/008748 A3 and C.-J. Huang et al. Characterization of voltage-gated sodium channel blockers by electrical stimulation and fluorescence detection of membrane potential, 24 Nature Biotech. […]
pIC50: −log10 of the molar value.
Measured Attribute: pIC50

The following compounds have reported results that may help.
{"columns": ["Compound", "Assayed System", "pIC50"],
 "data": [
  ["COc1c([C@H]2[C@H](C(=O)Nc3ccc4ncn(C)c4c3)O[C@@](C)(C(F)(F)F)[C@H]2C)ccc(F)c1F", "human NaV 1.8 (Homo sapiens)", "≤ 6.00"],
  ["COc1c([C@@H]2C[C@](C)(C(F)(F)F)O[C@H]2C(=O)Nc2ccnc(C(O)CO)c2)ccc(F)c1F (single isomer, unassigned)", "human NaV 1.8 (Homo sapiens)", "7.00 to 8.00"]
]}

Request: Please provide the recorded pIC50 for C[C@@H]1[C@H](c2ccc(F)c(F)c2OC(F)F)[C@@H](C(=O)Nc2ccnnc2)O[C@]1(C)C(F)(F)F (stereo in doubt) , tested on human NaV 1.8 (Homo sapiens).
Result: ≤ 6.00

----------
# Assayed System: human NaV 1.8 (Homo sapiens)
# Assay Overview: E-VIPR assay detecting and measuring NaV inhibition properties
# Type: cell-based
# Measurement Context: HEK cells expressing truncated human NaV 1.8; no human serum; read-out: IC50 in the E-VIPR Assay
pIC50: −log10 of the molar value.
Readings of pIC50 for the listed compounds

The following compounds have reported results that may help.
{"columns": ["Compound", "Reported Result"],
 "data": [
  ["COc1c([C@H]2[C@H](C(=O)Nc3cn(C[C@@H](O)CO)nc3C)O[C@@](C)(C(F)(F)F)[C@H]2C)ccc(F)c1F", "> 8.00"],
  ["CCOc1c([C@H]2[C@H](C(=O)Nc3ccnc(S(C)(=O)=NC)c3)O[C@@](C)(C(F)(F)F)[C@H]2C)ccc(F)c1C (single isomer, unassigned)", "> 8.00"],
  ["C[C@H]1[C@@H](c2ccc(F)c(F)c2OCC2COC2)[C@H](C(=O)Nc2ccc3cnnn3c2)O[C@@]1(C)C(F)(F)F", "> 8.00"],
  ["COCC(c1ccc(NC(=O)[C@@H]2O[C@@](C)(C(F)(F)F)[C@@H](C)[C@H]2c2ccc(F)c(F)c2OC)cn1)N(C)C (single isomer, unassigned)", "6.00 to 7.00"],
  ["C[C@@H]1[C@H](c2ccc(F)c(F)c2OC(F)F)[C@@H](C(=O)Nc2cc(S(C)(=O)=O)ccn2)O[C@]1(C)C(F)(F)F (single isomer, unassigned)", "≤ 6.00"]
]}

Request: May I ask what pIC50 has been recorded for COc1c([C@H]2[C@H](C(=O)Nc3cncc(S(=O)(=O)N4CCN(C)CC4)c3)O[C@@](C)(C(F)(F)F)[C@H]2C)ccc(F)c1F ?
Result: 7.00 to 8.00

Request: Now consider Cc1nocc1NC(=O)[C@@H]1O[C@@](C)(C(F)(F)F)[C@@H](C)[C@H]1c1ccc(F)c(F)c1OC[C@H](C)N1CC2(COC2)C1 .
Result: 7.00 to 8.00

Request: Now consider CC(C)Oc1c(C2C(C(=O)Nc3cc(S(C)(=O)=O)ccn3)OC(C)(C(F)(F)F)C2C)ccc(F)c1F (stereo not drawn) [Compound 115] .
Result: ≤ 6.00

Request: Now consider CCOc1c([C@H]2[C@H](C(=O)Nc3ccn4nnnc4c3)O[C@@](C)(C(F)(F)F)[C@H]2C)ccc(F)c1C (stereo in doubt) [Compound 121] .
Result: > 8.00

Request: Now consider COc1c(C2C(C(=O)Nc3ccnc(CO)c3)OC(C)(C(F)(F)F)C2C)ccc(F)c1F (stereo not drawn) .
Result: ≤ 6.00

Request: Now consider COc1c([C@H]2[C@H](C(=O)Nc3ccn4c(C)ncc4c3)O[C@@](C)(C(F)(F)F)[C@H]2C)ccc(F)c1F .
Result: > 8.00

Request: Now consider Cc1nn(C(F)F)cc1NC(=O)[C@@H]1O[C@@](C)(C(F)(F)F)[C@@H](C)[C@H]1c1ccc(F)c(F)c1CN1CC(O)C1 (racemic) .
Result: 6.00 to 7.00

----------
# Assayed System: human NaV 1.8 (Homo sapiens)
# Assay Overview: E-VIPR assay detecting and measuring NaV inhibition properties
# Assay type: cell-based
# Measurement Context: HEK cells expressing truncated human NaV 1.8; no human serum; read-out: IC50 in the E-VIPR Assay
pIC50: −log10 of the molar value.
Readings of pIC50 for the listed compounds

{"columns": ["Compound", "Reported Result"],
 "data": [
  ["COc1c([C@H]2[C@H](C(=O)Nc3ccnc(CO)c3)O[C@@](C)(C(F)(F)F)[C@H]2C)ccc(F)c1F (single isomer, unassigned)", "> 8.00"],
  ["COc1c([C@H]2[C@H](C(=O)Nc3ccc(-c4nnc(C)o4)nc3)O[C@@](C)(C(F)(F)F)[C@H]2C)ccc(F)c1F", "7.00 to 8.00"],
  ["COCCOc1c([C@H]2[C@H](C(=O)Nc3ccnc(N4C(=O)CN(C)C[C@H]4C)c3)O[C@@](C)(C(F)(F)F)[C@H]2C)ccc(F)c1F", "> 8.00"],
  ["COc1c(C2C(C(=O)Nc3ccnc(C(O)CO)c3)OC(C)(C(F)(F)F)C2C)ccc(F)c1F (single isomer, unassigned) [Compound 43]", "≤ 6.00"],
  ["CCOc1c([C@H]2[C@H](C(=O)Nc3ccn(C)c(=O)c3)O[C@@](C)(C(F)(F)F)[C@H]2C)ccc(F)c1F (stereo in doubt) [Compound 101]", "> 8.00"]
]}

Here is the next item to consider.
Request: May I ask what pIC50 has been recorded for COc1c([C@H]2[C@H](C(=O)Nc3ccc(C(N)=O)nc3)O[C@@](C)(C(F)(F)F)[C@H]2C)cccc1C(F)(F)F (stereo in doubt) ?
Result: > 8.00

src = patent US20240368135A1
